B1: HEEH_KT_rd6_0790 (parent)
chain: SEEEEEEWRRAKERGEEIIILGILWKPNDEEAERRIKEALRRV

variants of: B1; test: folding stability dG (cDNA display proteolysis); higher = more stable; settings: PBS, room temperature
PROPERTY MEASURED: folding stability dG (kcal/mol)
Numbers only, in kcal/mol.

Q) Sample `R10L` — what was its folding stability dG?
A) 1.82

Q) // next record `A11F`
A) 1.89

Q) Same question for `I20M` please.
A) 1.28

Q) Param item: `R41I`
A) 1.76

Q) Next entry: `L24D`
A) 0.729

Batch request: folding stability dG for each of the following variants.
1. K12W
2. S1T
3. G15C
4. I23F
5. I23H
6. E3L
7. R34K

A)
[2.43, 2.36, 2.43, 1.26, 1.2, 2.28, 2.06]
